# Test system: HCC 2998
# assay: NCI tumour cell line growth inhibition, 48 h
Calls of active or inactive are those of the source. Cut-off read from the data, not from the text of the source: active = GI50 up to about 1.1 µM and inactive = higher.
attribute measured: GI50

Input line: Entry under review: Cc1nn(C(=O)c2ccncc2)c2c1C(c1cccc([N+](=O)[O-])c1)SC(=N)N2 (stereo unspecified) . Reported GI50?
Output line: > 10 µM (inactive)

Input line: Entry under review: CCOC(=O)c1cn(Cc2ccccc2)c(=O)n1Cc1ccccc1 . Reported GI50?
Output line: > 100 µM (inactive)

Input line: Entry under review: CC(C)CCNc1ncnc2[nH]ncc12 . Reported GI50?
Output line: > 100 µM (inactive)

Input line: Entry under review: O=C1C=C(OCCCl)C(=O)c2c(O)ccc(O)c21 . Reported GI50?
Output line: 1.63 µM (inactive)

Input line: Entry under review: O=C(NC(Cc1ccc(Cl)cc1)C(=O)O)c1ccc(I)cc1 (stereo unspecified) . Reported GI50?
Output line: 3.42 µM (inactive)

Input line: Entry under review: Cc1nc(Nc2ccc([N+](=O)[O-])cc2)sc1C(/C=C/c1ccc(N(C)C)cc1)=N/NC(=O)c1ccccc1 . Reported GI50?
Output line: 41.3 µM (inactive)

Input line: Entry under review: COC(=O)[C@]1(c2cc3ccccc3n2S(=O)(=O)c2ccccc2)CC2CN(C(C)=O)C1CC2=O (stereo partly specified) . Reported GI50?
Output line: 3.23 µM (inactive)

Input line: Entry under review: CCCCNC(=S)Nc1nc(C(=O)NNC(=S)NCc2ccccc2)cs1 . Reported GI50?
Output line: 36.6 µM (inactive)

Input line: Entry under review: O=C(OCc1ccccc1)c1ccc(NCc2cc(O)ccc2O)cc1 . Reported GI50?
Output line: 2.15 µM (inactive)

Input line: Entry under review: COc1ccc(/C(C)=N/NC(N)=S)c(OC)c1 . Reported GI50?
Output line: > 100 µM (inactive)

Input line: Entry under review: COc1cc(CC(C)=O)cc(OC)c1 . Reported GI50?
Output line: > 100 µM (inactive)

Input line: Entry under review: COc1cc([C@@H]2c3cc4c(cc3[C@@H](NC(=O)c3ccc(OC(C)=O)cc3)C3COC(=O)[C@@H]32)OCO4)cc(OC)c1O (stereo partly specified) . Reported GI50?
Output line: 3.27 µM (inactive)

Input line: Entry under review: CCCOP(=S)(N1CC1)N1CC1 . Reported GI50?
Output line: > 100 µM (inactive)

Input line: Entry under review: CCC12CC[C@H](C#N)N3CCc4c(n(c5ccccc45)C(=O)C1)C32 (stereo partly specified) . Reported GI50?
Output line: 15.8 µM (inactive)

Input line: Entry under review: Clc1cc2nnn(C3CCCCO3)c2cc1Cl (stereo unspecified) . Reported GI50?
Output line: > 100 µM (inactive)

Input line: Entry under review: NS(=O)(=O)c1ccc(NC2=CC(=O)C(=O)c3ccccc32)cc1 . Reported GI50?
Output line: > 100 µM (inactive)

Cited source for all entries: ChEMBL document CHEMBL1201862
